Target: T1, Her2-Fc D1 (MR066)
T1 construct: also called ErbB2-Fc Domain 1
T1 chain: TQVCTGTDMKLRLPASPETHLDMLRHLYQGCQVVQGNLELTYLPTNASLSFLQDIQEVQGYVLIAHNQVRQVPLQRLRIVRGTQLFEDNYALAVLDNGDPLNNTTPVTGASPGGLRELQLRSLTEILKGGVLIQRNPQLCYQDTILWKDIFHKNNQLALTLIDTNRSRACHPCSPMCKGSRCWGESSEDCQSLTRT
Assay: ELISA, HER2-Fc construct captured by anti-huFc, Fab from 1 ug/ml in 5-fold steps, HRP anti-kappa/lambda
OBSERVATION TYPE: binding result

# BINDER, OBSERVATION TYPE, REPORTED RESULT
measured = [
    ("BIIB69A09 Fab (Fab, V domains shown, Soluble human Fab from a naive phagemid Fab library) VH: EVQLLESGGGLVQPGGSLRLSCAASGFTFSRYNMWWVRQAPGKGLEWVSVIRSSGGYTGYADSVKGRFTISRDNSKNTLYLQMNSLRAEDTAVYYCARWNSGYSYWDYYYGMDVWGQGTTVTVSS VL: DIQMTQSPSSLSASVGDRVTITCRASQSISSYLNWYQQKPGKAPKLLIYAASSLQSGVPSRFSGSGSGTDFTLTISSLQPEDFATYYCQQFNTYPITFGPGTKVDIK", "binding result", "binds"),
]
